B1: library; a variant is named by its letters at N, in order (parent)
chain: GCUGUCACCGAGAAACUGUGAAGUAUAUCUUAAACCUGGGCACUUAAAAGAUAUAUGGAGUUAGUAGUGCAACCUGCUCGGUCUGAUGAGUCCNNNNNNGGACGAAACAGC

Variants of: B1
Assay: normalized RNA/DNA level with ligand (relative to sTRSVctl = 100) (log10 (% of sTRSVctl)); HEK293T; ligand: cyclic di-GMP (c-di-GMP-II aptamer); ligand concentration (+) RNA-Seq: 1 mM; higher = less ribozyme self-cleavage, higher mRNA level
Settings: reporter: mCherry (pCS4076), ligand present: yes
measure.name: normalized RNA/DNA level with ligand (log10)
Answer as a number with no unit attached.

Reference set, count: 6
INSERT INTO results (variant, readout_value) VALUES
  ('CCUCGU', 1.86),
  ('CCGGAC', 1.75),
  ('UCCUGG', 1.91),
  ('CACUCC', 1.84),
  ('GGCGCC', 1.84),
  ('AACCCU', 1.84);

Fill in normalized RNA/DNA level with ligand (log10) for record CAAAUC
1.76

Fill in normalized RNA/DNA level with ligand (log10) for record CGGCUA
1.46
